Tested on: Saccharomyces cerevisiae growth inhibition, permissive control
Assay: yeast lifespan-shortening chemical project counter-assay, dose-response inhibition of growth under permissive conditions (AID 850);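 further: growth read as optical density after one day of incubation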
The source made the active and inactive calls. How the calls were made is not given here.
One label from this list, please: active, inactive

Exercise: I'd appreciate the recorded outcome for C=CCSc1nnc2nc3c(nn12)c1cc(C)ccc1n3CC=C from this test.
Solution: inactive

Exercise: I'd appreciate the recorded outcome for COc1ccc2nc(/N=C(\N)NC(=O)Nc3ccccc3)nc(C)c2c1 from this test.
Solution: active

Exercise: I'd appreciate the recorded outcome for Cc1cccc(/C(N)=N/OC(=O)c2ccc(F)cc2)c1 from this test.
Solution: inactive

Exercise: I'd appreciate the recorded outcome for CCn1c(=O)c(C(=O)Nn2c(C)nc3ccccc3c2=O)c(O)c2ccccc21 from this test.
Solution: active

Exercise: I'd appreciate the recorded outcome for Cc1ccc2c(c1)c1c(n2C)-c2[nH]ncc2CC1 from this test.
Solution: active

Exercise: I'd appreciate the recorded outcome for O=C(O)c1ccc(SCc2cnc(Cl)s2)cc1 from this test.
Solution: active

Exercise: I'd appreciate the recorded outcome for CN1C(=O)/C(=N/OC(=O)c2ccccc2)c2ccccc21 from this test.
Solution: active

Exercise: I'd appreciate the recorded outcome for COc1cc(OC)nc(NC(=O)CS(=O)(=O)c2ccccc2)n1 from this test.
Solution: active

Exercise: I'd appreciate the recorded outcome for Cc1ccc(N/N=C/c2cccnc2)cc1 from this test.
Solution: active

Exercise: I'd appreciate the recorded outcome for Cc1ccc(C(=O)OCn2ncc(Cl)c(Cl)c2=O)cc1 from this test.
Solution: active

Exercise: I'd appreciate the recorded outcome for Oc1ccc(CN2CCCCC2)c2cccnc12 from this test.
Solution: active

Exercise: I'd appreciate the recorded outcome for COc1cccc(C(=O)O/N=C(\N)Cc2ccc(Cl)cc2)c1 from this test.
Solution: active

Exercise: I'd appreciate the recorded outcome for CN1CCN(CC(=O)N2CCn3c4c(c5cc(C6CCCCC6)ccc53)CCCC42)CC1 (centres undefined) from this test.
Solution: inactive

Exercise: I'd appreciate the recorded outcome for O=C(/C(=C/O)N=Nc1ccccc1)c1ccncc1 from this test.
Solution: active

Exercise: I'd appreciate the recorded outcome for Cc1c(N=Cc2cc(Br)cc(Br)c2O)cccc1C(=O)O from this test.
Solution: active

Exercise: I'd appreciate the recorded outcome for O=S(=O)(NC1CC2CCC1C2)c1ccc(Br)s1 (centres undefined) from this test.
Solution: active

Exercise: I'd appreciate the recorded outcome for CCCc1ccc(Oc2cn[nH]c2-c2ccc(O)c(C)c2O)cc1 from this test.
Solution: active

Exercise: I'd appreciate the recorded outcome for O=C(Nc1nc(-c2ccccn2)cs1)c1ccc(Br)s1 from this test.
Solution: active

Exercise: I'd appreciate the recorded outcome for CCSc1ncc(/C=N/Nc2ccc(Cl)cc2)n1C from this test.
Solution: active

Exercise: I'd appreciate the recorded outcome for c1ccc2nc3ccccc3nc2c1 from this test.
Solution: active

Exercise: I'd appreciate the recorded outcome for CC(C)(Oc1ccc(Cl)cc1)C(=O)NC1=NN(c2ccccc2)C(=O)C1 from this test.
Solution: active

Exercise: I'd appreciate the recorded outcome for CCOC(=O)/C(=N\Nc1cccc(C(F)(F)F)c1)N(CCOC)CCOC from this test.
Solution: inactive

Exercise: I'd appreciate the recorded outcome for Cc1nn(-c2ccc(F)cc2)c2sc(C(=O)O)cc12 from this test.
Solution: active

Exercise: I'd appreciate the recorded outcome for N/C(Cc1ccc(Cl)c(Cl)c1)=N\OC(=O)c1cccs1 from this test.
Solution: inactive

Exercise: I'd appreciate the recorded outcome for c1ccc(-c2ccc(OCCCn3cncn3)cc2)cc1 from this test.
Solution: active

Exercise: I'd appreciate the recorded outcome for S=C1SCN(Cc2ccccn2)CN1Cc1ccco1 from this test.
Solution: active

Exercise: I'd appreciate the recorded outcome for N#CSCC(=O)c1cccc2ccccc12 from this test.
Solution: inactive

Exercise: I'd appreciate the recorded outcome for O=C(c1ccc(C(=O)N2CCCc3ccccc32)s1)N1CCCc2ccccc21 from this test.
Solution: active

Exercise: I'd appreciate the recorded outcome for CC(=O)N1CCN(c2ccc(OC[C@H]3CO[C@](Cn4ccnc4)(c4ccc(Cl)cc4Cl)O3)cc2)CC1 from this test.
Solution: active

Exercise: I'd appreciate the recorded outcome for Cn1c2ccccc2c2cc(C(=O)O)ccc21 from this test.
Solution: inactive

Exercise: I'd appreciate the recorded outcome for N#C/C(=C\c1ccc([N+](=O)[O-])o1)c1nc2ccccc2[nH]1 from this test.
Solution: inactive

Exercise: I'd appreciate the recorded outcome for CN(c1ccc(O)cc1)c1nc(-c2ccccc2)cs1 from this test.
Solution: inactive

Exercise: I'd appreciate the recorded outcome for Oc1c(Br)cc(Cl)cc1C=Nc1ccccc1Br from this test.
Solution: active

Exercise: I'd appreciate the recorded outcome for Cc1ccc(-n2cnc3cc(NCc4cccs4)ccc32)cc1 from this test.
Solution: active

Exercise: I'd appreciate the recorded outcome for Cc1cc(/C=N/n2cnnc2)c(C)n1-c1ccc(OCc2ccc(Cl)cc2Cl)cc1 from this test.
Solution: inactive

Exercise: I'd appreciate the recorded outcome for COC(=O)Cn1c2ccc(C)cc2c2nc(C)sc21 from this test.
Solution: inactive

Exercise: I'd appreciate the recorded outcome for O=c1c2sc(-c3ccccc3)cc2nc2n1CCC2 from this test.
Solution: active

Exercise: I'd appreciate the recorded outcome for O=c1cc(-c2ccccc2)n(S(=O)(=O)c2ccccc2)o1 from this test.
Solution: inactive

Exercise: I'd appreciate the recorded outcome for CNC(=S)N/N=C(\C)c1ccc(N2CCOCC2)cc1 from this test.
Solution: inactive

Exercise: I'd appreciate the recorded outcome for CC(Oc1ccc(Cl)cc1Cl)C(=O)NC1=NN(c2ccccc2)C(=O)C1 (centres undefined) from this test.
Solution: active

Exercise: I'd appreciate the recorded outcome for COc1ccc(Br)cc1C1CC(=O)N2CN(C)CSC2=C1C#N (centres undefined) from this test.
Solution: inactive

Exercise: I'd appreciate the recorded outcome for COc1cccc2c(=O)c3c(cnn3C)n(C)c12 from this test.
Solution: inactive

Exercise: I'd appreciate the recorded outcome for COC(=O)c1ccc(C(=O)OC)c(NC(=O)CSc2cccc[n+]2[O-])c1 from this test.
Solution: active

Exercise: I'd appreciate the recorded outcome for Oc1c(Br)cc(Br)cc1/C=N/c1nc2c(s1)CCCC2 from this test.
Solution: active

###

Tested on: Saccharomyces cerevisiae growth inhibition, permissive control
Test: yeast lifespan-shortening chemical project counter-assay, dose-response inhibition of growth under permissive conditions (AID 850);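 further: growth read as optical density after one day of incubation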
The source made the active and inactive calls. The rule behind the calls is not given here.
One label from this list, please: TRUE for active, FALSE for inactive

Exercise: I'd appreciate the recorded outcome for Oc1ccc(N=Nc2cccc(Cl)c2)cc1C=Nc1ccc(N2CCOCC2)cc1 from this test.
Solution: FALSE

Exercise: I'd appreciate the recorded outcome for CC12C(=O)N(c3cccc4cccnc34)C(=O)C1C1C=CC2C1 (stereo not drawn) from this test.
Solution: FALSE

Exercise: I'd appreciate the recorded outcome for Oc1c(N=Nc2ccccn2)ccc2ccccc12 from this test.
Solution: TRUE

Exercise: I'd appreciate the recorded outcome for Oc1c(Cl)cc(Cl)c2c1NCCC2 from this test.
Solution: TRUE

Exercise: I'd appreciate the recorded outcome for Cc1cc(O)c(/C=N/Nc2ccc(Cl)cc2)c(=O)o1 from this test.
Solution: TRUE

Exercise: I'd appreciate the recorded outcome for CCOC(=O)c1sc(=S)n(-c2cc(F)ccc2F)c1N from this test.
Solution: FALSE

Exercise: I'd appreciate the recorded outcome for CC(C)(C)c1cc(NCCCn2ccnc2)n2ncc(-c3ccc(Cl)cc3)c2n1 from this test.
Solution: FALSE

Exercise: I'd appreciate the recorded outcome for CCCC1COC(Cn2cncn2)(c2ccc(Cl)cc2Cl)O1 (stereo not drawn) from this test.
Solution: TRUE

Exercise: I'd appreciate the recorded outcome for O=C1CSC(=S)N1c1cccnc1 from this test.
Solution: FALSE

Exercise: I'd appreciate the recorded outcome for CCc1ccc2c(c1)C1(NN=C(c3ccccc3)S1)C(=O)N2 (stereo not drawn) from this test.
Solution: TRUE

Exercise: I'd appreciate the recorded outcome for Fc1ccc(Br)cc1C1C=C(c2cccnc2)Nc2ncnn21 (stereo not drawn) from this test.
Solution: FALSE

Exercise: I'd appreciate the recorded outcome for COc1ccc(OCc2nnc3n2N=C(c2ccc(OC)cc2)CS3)cc1 from this test.
Solution: FALSE

Exercise: I'd appreciate the recorded outcome for CN1CCN(C2=Cc3cc(Cl)ccc3Sc3cc(F)ccc32)CC1 from this test.
Solution: TRUE

###

Assay: yeast lifespan-shortening chemical project counter-assay, dose-response inhibition of growth under permissive conditions (AID 850);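 further: growth read as optical density after one day of incubation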
Conditions: Saccharomyces cerevisiae growth inhibition, permissive control; measured here: maximum growth inhibition; at 12.5 µM; stronger effect = higher value
property measured: inhibition (%)
Field format: number, assumed %, no unit text.

Record summary for O=S(=O)(NC1CC2CCC1C2)c1ccc(Br)s1 (stereo not drawn) : reported inhibition = 99

Record summary for CCCc1ccc(Oc2cn[nH]c2-c2ccc(O)c(C)c2O)cc1 : reported inhibition = 101

Record summary for O=C(Oc1c(Cl)cc(Cl)c2cccnc12)c1cccc([N+](=O)[O-])c1 : reported inhibition = 99.4

Record summary for COc1ccc(-n2c(Cc3cccn3C)nnc2SCC(=O)N2CCCC2)cc1 : reported inhibition = 37.7

Record summary for Cn1c2ccccc2c(=O)n2c(=O)c3ccccc3cc12 : reported inhibition = 30.2

Record summary for C=C(C)COc1ccc(-c2[nH]ncc2Oc2cccc(OC)c2)c(O)c1 : reported inhibition = 20.1

Record summary for Cc1ccc2nc(-c3ccc(NS(=O)(=O)c4ccc(F)c(F)c4)cc3)sc2c1 : reported inhibition = 39.1

Record summary for CCOC(=O)c1cc([N+](=O)[O-])c([N+](=O)[O-])cc1NC(C)=O : reported inhibition = 99.6
